Values from BindingDB's records for doi:10.1021/jm00018a012

# tgt: Platelet-activating factor receptor (Oryctolagus cuniculus)
# assay-protocol: In vitro antagonist activity against platelet activating factor (PAF) receptor, using washed rabbit platelets
IC50 reference
Reply with just the number (in nM).

Cc1nc2cnccc2n1-c1ccc(C2=Nc3c(-c4ccccc4)nn(C)c3N(C)C(=O)C2)cc1 = 0.5

I looked up `Cc1nc2cnccc2n1-c1ccc(C2=Nc3c(COCC(C)C)nn(C)c3N(C)C(=O)C2)cc1` and its IC50 for Platelet-activating factor receptor (Oryctolagus cuniculus) was 0.8

###

pIC50 reference
# tgt: Platelet-activating factor receptor (Oryctolagus cuniculus)
# assay-protocol: In vitro antagonist activity against platelet activating factor (PAF) receptor, using washed rabbit platelets
In textbook form, pIC50 equals minus log to base ten of the concentration in mol/L.

Study these solved cases before continuing.
Cc1nn(C)c2c1NC(=O)CC(c1ccc(-n3c(C)nc4cnccc43)cc1)=N2 = 9.00
Cc1cc2c(cc1C)-n1nnnc1CC(c1ccc(-n3c(C)nc4cnccc43)cc1)=N2 = 7.96
Cc1nc2cnccc2n1-c1ccc(C2=Nc3c(-c4cccnc4)nn(C)c3N(C)C(=O)C2)cc1 = 8.62
Cc1nc2cnccc2n1-c1ccc(C2=Nc3cc(Cl)c(Cl)cc3-n3ccnc3C2)cc1 = 8.77
Cc1nc2cnccc2n1-c1ccc(C2=Nc3c(CO)nn(C)c3N(C)C(=O)C2)cc1 = 7.85

So for `Cc1nc2cnccc2n1-c1ccc(C2=Nc3c(C4CCCCC4)nn4c3N(CCCC4)C(=O)C2)cc1` , the logged pIC50 turned out to be 9.40

So for `Cc1nc2cnccc2n1-c1ccc(C2=Nc3c(c(-c4ccccc4)nn3C)NC(=O)C2)cc1` , the logged pIC50 turned out to be 8.57

So for `Cc1nc2cnccc2n1-c1ccc(C2=Nc3c(-c4ccccc4)nn(C)c3NC(=O)C2)cc1` , the logged pIC50 turned out to be 9.22

So for `Cc1nc2cnccc2n1-c1ccc(C2=Nc3c(-c4cccs4)nn(C)c3N(C)C(=O)C2)cc1` , the logged pIC50 turned out to be 8.82
